Source listed as ChEMBL document CHEMBL3352169.

Test: Clearance in mouse at 5 mg/kg, iv
Type: ADME, organism-based
Design: dose 5 mg/kg, route intravenous
Conditions: in vivo
property_label: clearance (mL/min/kg)
Return type: number; implicit unit mL/min/kg.

**Query** Find the recorded clearance belonging to OCCCNc1ccc2c(c1)nc(-c1ccc3c(c1)OCO3)n1ncnc21 and report it.
**Result** 132

###

Experiment: Intrinsic clearance in rat liver microsomes
Format: ADME
Conditions: read-out: CLH
property_label: CLint scaled
Give me the value, and tack the unit on after it.

**Query** Find the recorded CLint scaled belonging to OCCCNc1ccc2c(c1)nc(-c1ccc3c(c1)OCO3)n1ncnc21 and report it.
**Result** 600 mL/min/kg
